assay.details: Inhibition of human alpha-9/rat alpha-10 nAChR expressed in Xenopus oocytes assessed as inhibition of acetylcholine-induced current by voltage clamp assay
Type: cell-based
test.context: Oocyte
Bridge positions count the residues as written; N and C are the ends. Peptide text beside a SMILES is read from it.
value.kind: IC50 (nM)
Number in nM, nothing else.

{"molecule": "N=C(N)NCCC[C@H](NC(=O)[C@@H]1CSSC[C@@H]2NC(=O)[C@@H](NC(=O)CN)CSSC[C@H](NC(=O)[C@H](CCCNC(=N)N)NC(=O)[C@@H]3CCCN3C(=O)[C@H](CC(=O)O)NC(=O)[C@H](CO)NC2=O)C(=O)N[C@@H](CCCNC(=N)N)C(=O)N[C@@H](Cc2ccc(O)cc2)C(=O)N[C@@H](CCCNC(=N)N)C(=O)N1)C(=O)O", "value.kind": "IC50", "measured": 40}
{"molecule": "N=C(N)NCCC[C@@H]1NC(=O)[C@H](Cc2ccc(O)cc2)NC(=O)[C@H](CCCNC(=N)N)NC(=O)[C@@H]2CSSC[C@H](NC(=O)CN)C(=O)N[C@@H](CSSC[C@@H](C(=O)O)NC1=O)C(=O)N[C@@H](CO)C(=O)N[C@@H](CC(=O)O)C(=O)N1CCC[C@H]1C(=O)N[C@@H](CCCNC(=N)N)C(=O)N2 (H-GCCSDPRCRYRC-OH; disulfide 2-8, 3-12)", "value.kind": "IC50", "measured": 34}

In: Provide measured IC50 value, entry: C[C@H](NC(=O)CNC(=O)[C@H](C)NC(=O)[C@H](C)NC(=O)CNC(=O)CNC(=O)[C@@H]1CSSC[C@H](NC(=O)CN)C(=O)N[C@H]2CSSC[C@H](NC(=O)[C@H](CCCNC(=N)N)NC(=O)[C@@H]3CCCN3C(=O)[C@H](CC(=O)O)NC(=O)[C@H](CO)NC2=O)C(=O)N[C@@H](CCCNC(=N)N)C(=O)N[C@@H](Cc2ccc(O)cc2)C(=O)N[C@@H](CCCNC(=N)N)C(=O)N1)C(=O)NCC(=O)O (H-GCCSDPRCRYRCGGAAGAG-OH; disulfide 2-12, 3-8)
Out: 19
